test system: all four cell lines: Ba/F3, P210 WT, P210 T315I, P210 E255K; experiment: Cell proliferation (cell viability) by trypan blue dye exclusion; format: cell-based, mouse; conditions: FIG. 4, 3 experiments, read-out: IC50 for inhibition of cell proliferation
OBSERVATION TYPE: IC50

| MOLECULE | RESULT |
| --- | --- |
| CNC(=O)c1cc(Oc2ccc(NC(=O)Nc3ccc(Cl)c(C(F)(F)F)c3)cc2)ccn1 [BAY 43-9006] | 4 to 8 µM |

Cited source for all entries: patent US7307071B2
